Source of measurements: patent US10994013B2

# assay remarks: Equilibrium solubility of drug in polymer solution in 0.1N HCl
# Type: physicochemical
# condition context: 0.1 N HCl without polymer, simulated gastric fluid, thermodynamic from solid; 0.1 N HCl, 37 C, 72 hours, no polymer; read-out: saturation / equilibrium solubility of neat drug
Give solubility thermodynamic at 72 h for every item shown.
Quick note: give the figure in µg/mL, leave out the unit.

Fill in the blank: the reported solubility thermodynamic at 72 h of CC(C)Cc1ccc(C(C)C(=O)O)cc1 (centres unmarked) [IBU, Ibuprofen] is ____.
37

Fill blank: measured solubility thermodynamic at 72 h of the compound CCC(C)n1ncn(-c2ccc(N3CCN(c4ccc(OCC5COC(Cn6cncn6)(c6ccc(Cl)cc6Cl)O5)cc4)CC3)cc2)c1=O (centres unmarked) [ITRA, Itraconazole] is ____.
5720
